The measured values listed here are drawn from the METLIN SMRT retention time set (Domingo-Almenara et al. 2019).

Assay Procedure: gradient 5% acetonitrile 3 min, to 50% in 2 min, to 85% in 15 min, held 3 min, 100 µL/min
Condition Label: column: Zorbax Extend-C18 2.1 x 50 mm; eluents: water / acetonitrile, 0.1% formic acid
Value Type: RP-LC retention time (s)

CCOC(=O)Cc1csc(NC(=O)Cc2csc(Nc3nc(C)cc(C)n3)n2)n1 = 769
Cc1ccc(-c2noc(Cc3nnc(-c4cccc(C)c4)o3)n2)cc1 = 1130
Cc1cc(NC(=O)NCCCSc2nc3ccccc3s2)no1 = 805
COc1cccc(S(=O)(=O)N2C[C@@H]3C[C@H](NC(=O)c4cccs4)[C@H]2C3)c1 = 854
O=C(Cn1cncc(-c2nc(-c3cccs3)cs2)c1=O)Nc1cccc(Cl)c1 = 941
CN(C)c1ccc2c(c1)CN(C(=O)C1CC=CC1)CCO2 = 610
COc1ccc2c(c1)c(N1CCCC1=O)c(C(=O)NCCc1ccc(OC)c(OC)c1OC)n2C = 858

I = CN(c1ccccc1)S(=O)(=O)c1ccc(C(=O)Nc2nccs2)cc1
II = COc1cn2c(cc1=O)C(=O)N(CCNC(=O)c1ccc(Br)o1)CC2
Prompt line: I need your help: which of the pair I , II has higher RP-LC retention time? // caller expects the label of the chosen entry
Response line: I
(I: 807 s, II: 556 s)
